Reported inhibition at 20 % strength values for a set of compounds
test system: hamster flank organ hair growth; experiment: Inhibition of hair growth: hamster flank organ hair mass after thirteen topical applications; assay type: in vivo, male intact Golden Syrian hamsters; conditions: Mesocricetus auratus, 20% by weight, 10-25 μl once a day, 13 applications, vs vehicle treated side, pH 7-8, read-out: % Inhibition (± SEM)
Counter-ions that a name gives are not always drawn.
Recorded Metric: inhibition at 20 % strength (%)

• CC(C)(CO)[C@H](O)C(=O)NCCC(=O)[O-].[Na+] [PTAss, D-Pantothenic acid monosodium salt] = 74.2
• CC(C)(CO)[C@@H](O)C(=O)NCCCO = 31.4
• CC(C)(CO)[C@@H](O)C(=O)NCCC(=O)O [PTA, DPantothenic acid hemicalcium salt] = 85.8
• CC(C)(CO)C(O)C(=O)NCCCO (racemic) = 51.1
